- study target: FLJ20589 clone-derived protein (human hippocalcin-like protein 1, VILIP-3) (Homo sapiens, UniProt P37235)
- Construct: A human full-length cDNA clone was expressed as a protein with an N-terminal His tag; His tag (N); made in house; host or cells: Escherichia coli BL21star(DE3)pLysS (pDEST17 Gateway expression plasmid)
- assay info: SEC/MS interaction analysis (size exclusion spin column and mass analysis) with FLJ20589 clone-derived protein
- Format: binding
- condition info: protein 47.5 μM, compound 10 μM
The following compounds are listed with their measured spectral intensity of the compound in the SEC spin column filtrate (protein fraction) values.
The response must contain the number and no unit.

Recorded spectral intensity of the compound in the SEC spin column filtrate (protein fraction), per entry:
CN1CCN(CCCN2c3ccccc3Sc3ccc(C(F)(F)F)cc32)CC1: 2953415
Fc1ccc(C(c2ccc(F)cc2)N2CCN(C/C=C/c3ccccc3)CC2)cc1: 178128
O=C1CN=C(c2ccccc2)c2cc(Cl)ccc2N1CC1CC1: 8279573

Next up:
Challenge: Consider the compound c1ccc(-c2ccc(C(c3ccccc3)n3ccnc3)cc2)cc1 (stereo not shown) and give its measured spectral intensity of the compound in the SEC spin column filtrate (protein fraction).
Response given: 2513645

----------
- study target: FLJ39196 clone-derived protein (human neurocalcin δ) (Homo sapiens, UniProt P61601)
- Construct: A human full-length cDNA clone was expressed as a protein with an N-terminal His tag; His tag (N); made in house; host or cells: Escherichia coli BL21star(DE3)pLysS (pDEST17 Gateway expression plasmid)
- assay info: SEC/MS interaction analysis (size exclusion spin column and mass analysis) with FLJ39196 clone-derived protein
- Type: binding
- condition info: protein 0 μM (protein-free reference), compound 1 μM
spectral intensity of the compound in the SEC spin column filtrate (protein fraction) by entry:
Answer field: number only, no words.

CCc1cc2c(s1)N(C)C(=O)CN=C2c1ccccc1Cl: 8089543

Challenge: Report spectral intensity of the compound in the SEC spin column filtrate (protein fraction) for CCOC(=O)Oc1c(OC)cc(C(=O)O[C@@H]2C[C@@H]3CN4CCc5c([nH]c6cc(OC)ccc56)[C@H]4C[C@@H]3[C@H](C(=O)OC)[C@H]2OC)cc1OC please.
Response given: 38126829

Challenge: Reported spectral intensity of the compound in the SEC spin column filtrate (protein fraction), compound OCCN1CCN(CC/C=C2/c3ccccc3Sc3ccc(C(F)(F)F)cc32)CC1 [Flupentixol cis-(Z)] : ____
Response given: 57845690

Challenge: Recorded spectral intensity of the compound in the SEC spin column filtrate (protein fraction) for CN1CCC(=C2c3ccccc3Sc3ccccc32)CC1 , please?
Response given: 2913965

Challenge: Returns the measured spectral intensity of the compound in the SEC spin column filtrate (protein fraction) for the input compound. Input: Clc1ccc(C(OCCN2CCCCC2)c2ccccc2)cc1 (stereo not shown)
Response given: 2920008

Challenge: Could you tell me which spectral intensity of the compound in the SEC spin column filtrate (protein fraction) is on file for CCc1oc2ccccc2c1C(=O)c1cc(Br)c(O)c(Br)c1 ?
Response given: 231212

Challenge: So what's the measured spectral intensity of the compound in the SEC spin column filtrate (protein fraction) for this one? CC(C)[C@@]1(NC(=O)[C@@H]2C[C@@H]3c4cccc5[nH]cc(c45)C[C@H]3N(C)C2)O[C@@]2(O)[C@@H]3CCCN3C(=O)[C@H](Cc3ccccc3)N2C1=O [Dihydroergocristine]
Response given: 25663523

The values you see were collected from patent US8178077B2.
